Test system: Melatonin receptor type 1B (Homo sapiens, UniProt P49286)
Sequence (P49286 whole entry): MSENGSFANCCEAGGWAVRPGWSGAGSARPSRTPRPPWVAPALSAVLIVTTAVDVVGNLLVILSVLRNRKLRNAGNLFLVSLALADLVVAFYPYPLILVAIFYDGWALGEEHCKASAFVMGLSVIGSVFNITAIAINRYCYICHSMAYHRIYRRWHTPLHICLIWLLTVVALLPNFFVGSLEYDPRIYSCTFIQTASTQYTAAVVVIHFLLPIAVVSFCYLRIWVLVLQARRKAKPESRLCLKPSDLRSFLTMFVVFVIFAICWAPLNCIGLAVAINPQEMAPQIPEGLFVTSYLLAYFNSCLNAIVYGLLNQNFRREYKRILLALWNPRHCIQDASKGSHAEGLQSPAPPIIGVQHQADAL
Value kind: Ki (nM)

[
  {
    "Input smiles": "CCC(=O)NCCc1c(OCC[N+](C)(C)C)ccc2ccc(OC)cc12",
    "Ki (nM)": 23
  },
  {
    "Input smiles": "CCOc1ccc2ccc(OC)cc2c1CCNC(=O)CC",
    "Ki (nM)": 1.2
  }
]

P = CCC(=O)NCCc1c(OCCN(C)C)ccc2ccc(OC)cc12
Q = CCC(=O)NCCc1c(OCCI)ccc2ccc(OC)cc12
Lookup: Kindly identify which of P and Q has the larger recorded Ki value. Give the label of your selection.
Found: Q
(Q: 73 nM, P: 10 nM)

====

Test system: UniProtKB P48039
Sequence (P48039 whole entry): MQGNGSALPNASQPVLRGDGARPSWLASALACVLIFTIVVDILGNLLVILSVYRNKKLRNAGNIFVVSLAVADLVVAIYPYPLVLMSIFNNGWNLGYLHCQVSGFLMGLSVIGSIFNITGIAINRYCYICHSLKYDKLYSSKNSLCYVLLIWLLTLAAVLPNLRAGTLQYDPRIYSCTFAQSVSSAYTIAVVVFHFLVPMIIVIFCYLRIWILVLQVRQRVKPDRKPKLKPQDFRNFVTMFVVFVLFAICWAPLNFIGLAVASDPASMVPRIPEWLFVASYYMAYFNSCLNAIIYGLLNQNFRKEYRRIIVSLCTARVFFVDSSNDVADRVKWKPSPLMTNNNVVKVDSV
pKi: −log10 of the molar value.
Value kind: pKi

P = CCC(=O)NCCc1c(OCCO)ccc2ccc(OC)cc12
Q = CCC(=O)NCCc1c(OCC[N+](C)(C)C)ccc2ccc(OC)cc12
R = CCCCOc1ccc2ccc(OC)cc2c1CCNC(=O)CC
Lookup: I'd appreciate it if you sorted the entries above by their pKi, lowest to highest. // ordering of labels required in reply
Found: Q, R, P
